Could you please report measured Binding Signal for the items listed next?
Experimental target: T1, human TREM2 (human, UniProt Q9NZC2 19-174, limits assumed)
T1 construct: also called triggering receptor expressed on myeloid cells 2
T1 sequence: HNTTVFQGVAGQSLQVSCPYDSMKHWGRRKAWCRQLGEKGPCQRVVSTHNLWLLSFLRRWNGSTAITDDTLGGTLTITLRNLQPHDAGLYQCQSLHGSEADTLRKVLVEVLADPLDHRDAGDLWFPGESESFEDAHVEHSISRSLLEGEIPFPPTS
Assay protocol: 2nd screen, 10 nM

Some binders with known Binding Signal results, for comparison:
1. V87 (antibody, V domains shown, also called 6E7 variant V87) VH: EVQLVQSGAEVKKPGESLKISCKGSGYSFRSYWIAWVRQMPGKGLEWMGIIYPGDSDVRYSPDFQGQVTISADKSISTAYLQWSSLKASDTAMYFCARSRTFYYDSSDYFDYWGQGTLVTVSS VL: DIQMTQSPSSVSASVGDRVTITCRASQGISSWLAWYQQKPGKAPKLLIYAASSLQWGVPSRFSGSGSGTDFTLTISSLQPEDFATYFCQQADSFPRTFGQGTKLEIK	3.93 fold over 6E7 parental antibody
2. V63 (antibody, V domains shown, also called 6E7 variant V63) VH: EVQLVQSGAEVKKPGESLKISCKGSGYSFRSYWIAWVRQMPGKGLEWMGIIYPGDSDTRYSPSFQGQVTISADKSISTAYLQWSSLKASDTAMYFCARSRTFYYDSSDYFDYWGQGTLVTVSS VL: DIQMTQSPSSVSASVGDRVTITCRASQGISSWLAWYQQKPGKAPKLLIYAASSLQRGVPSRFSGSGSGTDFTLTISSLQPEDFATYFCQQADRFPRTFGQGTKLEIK	3.71 fold over 6E7 parental antibody
3. V25 (antibody, V domains shown, also called 6E7 variant V25) VH: EVQLVQSGAEVKKPGESLKISCKGSGYSFGSYWIAWVRQMPGKGLEWMGLIYPGDSDTRYSPSFQGQVTISADKSISTAYLQWSSLKASDTAMYFCARSRTFYYDSSDYFDYWGQGTLVTVSS VL: DIQMTQSPSSVSASVGDRVTITCRASQGISSWLAWYQQKPGKAPKLLIYAASSLANGVPSRFSGSGSGTDFTLTISSLQPEDFATYFCQQADSMPRTFGQGTKLEIK	4.7 fold over 6E7 parental antibody
4. V65 (antibody, V domains shown, also called 6E7 variant V65) VH: EVQLVQSGAEVKKPGESLKISCKGSGYSFTSYWIAWVRQMPGKGLEWMGIIYPGDSDTRYSPSFQGQVTISADKSISTAYLQWSSLKASDTAMYFCARSRTFYYDSSDYFDYWGQGTLVTVSS VL: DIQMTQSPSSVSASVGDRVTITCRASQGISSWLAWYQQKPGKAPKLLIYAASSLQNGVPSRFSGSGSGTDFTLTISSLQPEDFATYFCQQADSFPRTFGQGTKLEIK	2.75 fold over 6E7 parental antibody
5. V16 (antibody, V domains shown, also called 6E7 variant V16) VH: EVQLVQSGAEVKKPGESLKISCKGSGYSMTSYWIAWVRQMPGKGLEWMGIIYPGDGDTRYSPSFQGQVTISADKSISTAYLQWSSLKASDTAMYFCARSRTFYYDSSDYFDYWGQGTLVTVSS VL: DIQMTQSPSSVSASVGDRVTITCRASQGISSWLAWYQQKPGKAPKLLIYAASNLQNGVPSRFSGSGSGTDFTLTISSLQPEDFATYFCQQADSFPRTFGQGTKLEIK	4.04 fold over 6E7 parental antibody

Give measured Binding Signal for every item shown.
1. V2 (antibody, V domains shown, also called 6E7 variant V2) VH: EVQLVQSGAEVKKPGESLKISCKGSGSSFTSYWIAWVRQMPGKGLEWMGIIYPGDGDTRYSPSFQGQVTISADKSISTAYLQWSSLKASDTAMYFCARSRTFYYDSSDYFDYWGQGTLVTVSS VL: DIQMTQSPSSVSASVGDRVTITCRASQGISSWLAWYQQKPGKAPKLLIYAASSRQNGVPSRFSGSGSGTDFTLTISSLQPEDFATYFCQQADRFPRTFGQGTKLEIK
2. V84 (antibody, V domains shown, also called 6E7 variant V84) VH: EVQLVQSGAEVKKPGESLKISCKGSGYGFTSYWIAWVRQMPGKGLEWMGIIYPGDSDTRYSPSFQGQVTISADKSISTAYLQWSSLKASDTAMYFCARQRTFYYDSSDYSDYWGQGTLVTVSS VL: DIQMTQSPSSVSASVGDRVTITCRASQGISSWLAWYQQKPGKAPKLLIYGASSLQNGVPSRFSGSGSGTDFTLTISSLQPEDFATYFCQQADSFPRTFGQGTKLEIK
3. V72 (antibody, V domains shown, also called 6E7 variant V72) VH: EVQLVQSGAEVKKPGESLKISCKGSGYSFTSYWIGWVRQMPGKGLEWMGIIYPGDSDTRYSPSFQGQVTISADKSISTAYLQWSSLKASDTAMYFCARGRTFYYDSSDYFDYWGQGTLVTVSS VL: DIQMTQSPSSVSASVGDRVTITCRASQGISSWLAWYQQKPGKAPKLLIYAASSLVNGVPSRFSGSGSGTDFTLTISSLQPEDFATYFCQQADSYPRTFGQGTKLEIK
4. V36 (antibody, V domains shown, also called 6E7 variant V36) VH: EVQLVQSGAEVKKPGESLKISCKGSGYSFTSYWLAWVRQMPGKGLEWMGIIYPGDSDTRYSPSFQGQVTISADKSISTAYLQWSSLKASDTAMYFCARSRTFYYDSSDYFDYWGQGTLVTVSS VL: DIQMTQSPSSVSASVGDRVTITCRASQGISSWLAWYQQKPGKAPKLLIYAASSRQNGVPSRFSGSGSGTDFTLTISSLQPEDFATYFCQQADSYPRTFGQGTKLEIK

2.9 fold over 6E7 parental antibody
1.62 fold over 6E7 parental antibody
4.01 fold over 6E7 parental antibody
3.44 fold over 6E7 parental antibody

What Binding Signal value was documented for this binder, V52 (antibody, V domains shown, also called 6E7 variant V52; LV-107/HV-107) VH: EVQLVQSGAEVKKPGESLKISCKGSGYSFESYWIAWVRQMPGKGLEWMGIIYPGDSDTRYSPSFQGQVTISADKSISTAYLQWSSLKASDTAMYFCARGRTFYYDSSDYFDYWGQGTLVTVSS VL: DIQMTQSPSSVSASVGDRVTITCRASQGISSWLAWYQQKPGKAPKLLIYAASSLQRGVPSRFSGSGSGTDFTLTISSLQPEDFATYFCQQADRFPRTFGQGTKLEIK ?
3.09 fold over 6E7 parental antibody

Reference source: patent US20250326839A1
